Numbers sourced from patent US20220162261A1.

# System Under Test: T1, α4β1 (R&D Systems #5668-A4) (UniProt P13612 34-970; P05556 21-728, limits assumed)
# T1 construct: bought; also called soluble α4β1
# Method Notes: competition ELISA vs VCAM-1
Bridge positions count the residues as written; N and C are the ends. Square brackets hold non-standard residues; d marks the D form. Phe(4-tBu) = CC(C)(C)c1ccc(C[C@H](N)C(=O)O)cc1; NMeR = CN[C@@H](CCCNC(=N)N)C(=O)O; β3hE = N[C@@H](CCC(=O)O)CC(=O)O; NMeK = CN[C@@H](CCCCN)C(=O)O; Pen = CC(C)(S)[C@H](N)C(=O)O
The binders listed here are annotated with their IC50.

Study these solved cases before continuing.
>>> value("Ac-[Pen][NMeR]SDTL[Pen]W[dE][dK]-NH2 (disulfide 1-7; not fully specified (residue 10); printed as (Ac Pen N-Me-R S D T L Pen W e k NH2)2 DIG, disulfide Pen-Pen; also: homodimer via DIG linker) [SEQ ID NO: 68]")
"> 500 nM"
>>> value("Ac-[Pen][NMeR]SDTL[Pen]W[β3hE][NMeK]-NH2 (disulfide 1-7; not fully specified (residue 10); printed as (Ac Pen N-Me-R S D T L Pen W b-H-E N-Me-K NH2)2 DIG, disulfide Pen-Pen; also: homodimer (…)2 DIG via Lys10 NZ) [SEQ ID NO: 141]")
"> 500 nM"

Note: attention shifts to another entry.
Query :: Identify IC50 associated with the binder Ac-[Pen][NMeR]SDTL[Pen][Phe(4-tBu)][β3hE][dK]-NH2 (disulfide 1-7; SMILES CC(=O)N[C@@H]1C(=O)N(C)[C@@H](CCCNC(=N)N)C(=O)N[C@@H](CO)C(=O)N[C@@H](CC(=O)O)C(=O)N[C@@H]([C@@H](C)O)C(=O)N[C@@H](CC(C)C)C(=O)N[C@H](C(=O)N[C@@H](Cc2ccc(C(C)(C)C)cc2)C(=O)N[C@@H](CCC(=O)O)CC(=O)N[C@H](CCCCN)C(N)=O)C(C)(C)SSC1(C)C) [SEQ ID NO: 153]
Result :: > 1000 nM
